Reported Ratio EC50 values for the following compounds.
test system: Trypanosoma brucei; test: Resistance factor, ratio of EC50 for multi-drug resistant Trypanosoma brucei B48 to EC50 for wild type Trypanosoma brucei; type: functional
Reported property: Ratio EC50

Input smiles: O=C(O[C@@H]1C=C[C@H](n2ccc(=O)[nH]c2=O)C1)c1cc(Cl)cc(Cl)c1
Reported property: Ratio EC50
Value measured: 1
//
Input smiles: Cc1cc(C)cc(C(=O)O[C@@H]2C=C[C@H](n3ccc(=O)n(Cc4ccccc4)c3=O)C2)c1
Reported property: Ratio EC50
Value measured: 1
//
Input smiles: O=C(O[C@@H]1C=C[C@H](n2ccc(=O)n(Cc3ccccc3)c2=O)C1)c1ccccc1
Reported property: Ratio EC50
Value measured: 0.9
//
Input smiles: O=C(O[C@@H]1C=C[C@H](n2ccc(=O)n(C(=O)c3cc(Cl)cc(Cl)c3)c2=O)C1)c1cc(Cl)cc(Cl)c1
Reported property: Ratio EC50
Value measured: 1.1

====

test system: Leishmania mexicana; test: Antileishmanial activity against wild type Leishmania mexicana after 16 hrs by Alamar Blue assay; format: functional
Reported property: EC50

Compound: O=c1[nH]c(=O)n([C@H]2C=C[C@@H](O)C2)cc1I
Target system: Leishmania mexicana
Value measured: 95.2 µM
//
Compound: CCCCCCCCCCCCC#Cc1cn([C@H]2C=C[C@@H](O)C2)c(=O)n([C@H]2C=C[C@@H](O)C2)c1=O
Target system: Leishmania mexicana
Value measured: 11.8 µM
//
Compound: O=c1[nH]cc(F)c(=O)[nH]1 [FLUOROURACIL]
Target system: Leishmania mexicana
Value measured: 7.7 µM
//
Compound: O=c1[nH]c(=O)n([C@H]2C=C[C@@H](O)C2)cc1Br
Target system: Leishmania mexicana
Value measured: 97.4 µM
//
Compound: Cc1cc(=O)[nH]c(=O)n1[C@H]1C=C[C@@H](OC(=O)c2ccccc2)C1
Target system: Leishmania mexicana
Value measured: 94.1 µM

====

tested on: Leishmania mexicana; assay: Antileishmanial activity against wild type Leishmania mexicana after 16 hrs by Alamar Blue assay; format: functional
Reported EC50 values for the following molecules.
Reported property: EC50 (µM)

Input smiles: Cc1ccc(Nc2cn([C@H]3C=C[C@@H](O)C3)c(=O)[nH]c2=O)cc1
Target system: Leishmania mexicana
Reported property: EC50
Value measured: 94.6

Input smiles: N#Cc1cccc(C(=O)O[C@@H]2C=C[C@H](n3ccc(=O)[nH]c3=O)C2)c1
Target system: Leishmania mexicana
Reported property: EC50
Value measured: 94.7

Input smiles: O=C(O[C@@H]1C=C[C@H](n2ccc(=O)[nH]c2=O)C1)c1cc(Cl)cc(Cl)c1
Target system: Leishmania mexicana
Reported property: EC50
Value measured: 81.5

Input smiles: O=c1ccn([C@H]2C=C[C@@H](O)C2)c(=O)[nH]1
Target system: Leishmania mexicana
Reported property: EC50
Value measured: 97

Input smiles: O=C(O[C@@H]1C=C[C@H](n2ccc(=O)n(Cc3ccccc3)c2=O)C1)c1ccccc1
Target system: Leishmania mexicana
Reported property: EC50
Value measured: 34.5

Input smiles: COc1ccc(Cn2c(=O)cc(C)n([C@H]3C=C[C@@H](OC(=O)c4ccccc4)C3)c2=O)cc1
Target system: Leishmania mexicana
Reported property: EC50
Value measured: 33.8

Input smiles: N#Cc1cccc(C(=O)O[C@@H]2C=C[C@H](n3ccc(=O)n(Cc4ccccc4)c3=O)C2)c1
Target system: Leishmania mexicana
Reported property: EC50
Value measured: 45.5

Input smiles: O=C(O[C@@H]1C=C[C@H](n2ccc(=O)n(C(=O)c3cc(Cl)cc(Cl)c3)c2=O)C1)c1cc(Cl)cc(Cl)c1
Target system: Leishmania mexicana
Reported property: EC50
Value measured: 89.1

Input smiles: Cc1cc(=O)[nH]c(=O)n1[C@H]1C=C[C@@H](O)C1
Target system: Leishmania mexicana
Reported property: EC50
Value measured: 97.7

====

system: Trypanosoma brucei; assay: Resistance factor, ratio of EC50 for multi-drug resistant Trypanosoma brucei B48 to EC50 for wild type Trypanosoma brucei; assay type: functional
I would appreciate it if you labelled entries condition met when Ratio EC50 is 1 or higher, otherwise condition not met.

Input smiles: Cc1cc(=O)[nH]c(=O)n1[C@H]1C=C[C@@H](O)C1
Class label: condition met

Input smiles: O=c1[nH]cc(F)c(=O)[nH]1
Class label: condition met

Input smiles: N=C(N)c1ccc(OCCCCCOc2ccc(C(=N)N)cc2)cc1
Class label: condition met

Input smiles: O=C(O[C@@H]1C=C[C@H](n2cc(Br)c(=O)[nH]c2=O)C1)c1ccccc1
Class label: condition not met

Input smiles: Cc1cc(C)cc(Cn2c(=O)cc(C)n([C@H]3C=C[C@@H](OC(=O)c4ccccc4)C3)c2=O)c1
Class label: condition not met

Input smiles: N#Cc1cccc(C(=O)O[C@@H]2C=C[C@H](n3ccc(=O)n(Cc4ccccc4)c3=O)C2)c1
Class label: condition not met

====

system: Trypanosoma brucei; assay: Resistance factor, ratio of EC50 for multi-drug resistant Trypanosoma brucei B48 to EC50 for wild type Trypanosoma brucei; type: functional

Input smiles: Cc1ccc(Nc2cn([C@H]3C=C[C@@H](O)C3)c(=O)[nH]c2=O)cc1
Target system: Trypanosoma brucei
Ratio EC50: 1
//
Input smiles: Cc1cc(=O)n(C(=O)c2ccccc2)c(=O)n1[C@H]1C=C[C@@H](OC(=O)c2ccccc2)C1
Target system: Trypanosoma brucei
Ratio EC50: 1
//
Input smiles: COc1ccc(Cn2c(=O)cc(C)n([C@H]3C=C[C@@H](OC(=O)c4ccccc4)C3)c2=O)cc1
Target system: Trypanosoma brucei
Ratio EC50: 0.9
//
Input smiles: Cc1cc(C)cc(Cn2c(=O)ccn([C@H]3C=C[C@@H](OC(=O)c4ccccc4)C3)c2=O)c1
Target system: Trypanosoma brucei
Ratio EC50: 1
//
Input smiles: O=c1[nH]c(=O)n([C@H]2C=C[C@@H](O)C2)cc1I
Target system: Trypanosoma brucei
Ratio EC50: 1
//
Input smiles: O=c1[nH]c(=O)n([C@H]2C=C[C@@H](O)C2)cc1Nc1ccccc1
Target system: Trypanosoma brucei
Ratio EC50: 1.1
//
Input smiles: CCCCCCCCCCCCC#Cc1cn([C@H]2C=C[C@@H](O)C2)c(=O)n([C@H]2C=C[C@@H](O)C2)c1=O
Target system: Trypanosoma brucei
Ratio EC50: 1.1
//
Input smiles: O=c1ccn([C@H]2C=C[C@@H](O)C2)c(=O)[nH]1
Target system: Trypanosoma brucei
Ratio EC50: 1
//
Input smiles: Cc1cc(C)cc(C(=O)O[C@@H]2C=C[C@H](n3ccc(=O)n(C(=O)c4cc(C)cc(C)c4)c3=O)C2)c1
Target system: Trypanosoma brucei
Ratio EC50: 0.9

====

Reported Ratio EC50 values for the following compounds.
test system: Leishmania mexicana; test: Resistance factor, ratio of EC50 for 5FU resistant Leishmania mexicana to EC50 for wild type Leishmania mexicana; format: functional
Reported property: Ratio EC50

Compound: O=c1ccn([C@H]2C=C[C@@H](O)C2)c(=O)[nH]1
Target system: Leishmania mexicana
Value measured: 1.01

Compound: COc1ccc(Cn2c(=O)cc(C)n([C@H]3C=C[C@@H](OC(=O)c4ccccc4)C3)c2=O)cc1
Target system: Leishmania mexicana
Value measured: 1.29

Compound: Cc1cc(=O)[nH]c(=O)n1[C@H]1C=C[C@@H](O)C1
Target system: Leishmania mexicana
Value measured: 1.04

Compound: N=C(N)c1ccc(OCCCCCOc2ccc(C(=N)N)cc2)cc1 [PENTAMIDINE]
Target system: Leishmania mexicana
Value measured: 0.86

Compound: O=C(O[C@@H]1C=C[C@H](n2ccc(=O)n(C(=O)c3cc(Cl)cc(Cl)c3)c2=O)C1)c1cc(Cl)cc(Cl)c1
Target system: Leishmania mexicana
Value measured: 1.03

Compound: O=c1[nH]cc(F)c(=O)[nH]1 [FLUOROURACIL]
Target system: Leishmania mexicana
Value measured: 322

Compound: CCCCCCCCCCCCC#Cc1cn([C@H]2C=C[C@@H](O)C2)c(=O)n([C@H]2C=C[C@@H](O)C2)c1=O
Target system: Leishmania mexicana
Value measured: 0.97

Compound: O=C(O[C@@H]1C=C[C@H](n2ccc(=O)[nH]c2=O)C1)c1ccccc1
Target system: Leishmania mexicana
Value measured: 1.01

Compound: Cc1cc(C)cc(C(=O)O[C@@H]2C=C[C@H](n3ccc(=O)n(Cc4ccccc4)c3=O)C2)c1
Target system: Leishmania mexicana
Value measured: 0.79

Compound: Cc1cc(=O)[nH]c(=O)n1[C@H]1C=C[C@@H](OC(=O)c2ccccc2)C1
Target system: Leishmania mexicana
Value measured: 1.01

Compound: O=C(O[C@@H]1C=C[C@H](n2ccc(=O)[nH]c2=O)C1)c1cc(Cl)cc(Cl)c1
Target system: Leishmania mexicana
Value measured: 1.1

Compound: O=c1[nH]c(=O)n([C@H]2C=C[C@@H](O)C2)cc1I
Target system: Leishmania mexicana
Value measured: 1

Compound: O=C(O[C@@H]1C=C[C@H](n2ccc(=O)n(Cc3ccccc3)c2=O)C1)c1ccccc1
Target system: Leishmania mexicana
Value measured: 1.34

Compound: Cc1cc(C)cc(Cn2c(=O)cc(C)n([C@H]3C=C[C@@H](OC(=O)c4ccccc4)C3)c2=O)c1
Target system: Leishmania mexicana
Value measured: 1.11

Compound: O=c1[nH]c(=O)n([C@H]2C=C[C@@H](O)C2)cc1Nc1ccccc1
Target system: Leishmania mexicana
Value measured: 1.01

Compound: O=c1[nH]c(=O)n([C@H]2C=C[C@@H](O)C2)cc1Br
Target system: Leishmania mexicana
Value measured: 1

Compound: Cc1cc(C)cc(Cn2c(=O)ccn([C@H]3C=C[C@@H](OC(=O)c4ccccc4)C3)c2=O)c1
Target system: Leishmania mexicana
Value measured: 0.94

Compound: Cc1cc(C)cc(C(=O)O[C@@H]2C=C[C@H](n3ccc(=O)n(C(=O)c4cc(C)cc(C)c4)c3=O)C2)c1
Target system: Leishmania mexicana
Value measured: 0.61

Compound: N#Cc1cccc(C(=O)O[C@@H]2C=C[C@H](n3ccc(=O)n(Cc4ccccc4)c3=O)C2)c1
Target system: Leishmania mexicana
Value measured: 1.16

Compound: Cc1cc(=O)n(C(=O)c2ccccc2)c(=O)n1[C@H]1C=C[C@@H](OC(=O)c2ccccc2)C1
Target system: Leishmania mexicana
Value measured: 0.86

Compound: N#Cc1cccc(C(=O)O[C@@H]2C=C[C@H](n3ccc(=O)[nH]c3=O)C2)c1
Target system: Leishmania mexicana
Value measured: 1.02

Compound: Cc1ccc(Nc2cn([C@H]3C=C[C@@H](O)C3)c(=O)[nH]c2=O)cc1
Target system: Leishmania mexicana
Value measured: 1.02

Compound: O=C(O[C@@H]1C=C[C@H](n2cc(Br)c(=O)[nH]c2=O)C1)c1ccccc1
Target system: Leishmania mexicana
Value measured: 1.02
